Test system: mRNA
Assay: mRNA encapsulation (modified Quant-iT RiboGreen assay)
Assay type: physicochemical
Conditions: mRNA; formulation recipe R7
Non-standard residues stand in square brackets, D forms with d. Residues, ends and D or L forms follow the SMILES beside them. N(2-decanoyloxyethyl)Gly = CCCCCCCCCC(=O)OCCNCC(=O)O; N(2-ethylhexyl)Gly = CCCCC(CC)CNCC(=O)O; N(CH(CH2OH)2)Gly = O=C(O)CNC(CO)CO
READOUT LABEL: % Encapsulation
Please don't drop the unit; write it after the number.

Challenge: Record request: % Encapsulation value, item CCCCCCCCCC(=O)OCCN(CC(=O)N(CCOC(=O)CCCCCCCCC)CC(=O)N(CC(=O)N(CCOC(=O)CCCCCCCCC)CC(=O)N(CCOC(=O)CCCCCCCCC)CC(=O)N(CC(N)=O)CC(CC)CCCC)CC(CC)CCCC)C(=O)CNC(CO)CO (stereo not shown) [Compound 16] (H-[N(CH(CH2OH)2)Gly][N(2-decanoyloxyethyl)Gly][N(2-decanoyloxyethyl)Gly][N(2-ethylhexyl)Gly][N(2-decanoyloxyethyl)Gly][N(2-decanoyloxyethyl)Gly][N(2-ethylhexyl)Gly]-NH2)
Response given: 87.8%
